Molecular target: Human recombinant SCP-2 (Homo sapiens, UniProt P22307)
Sequence (P22307 405-547): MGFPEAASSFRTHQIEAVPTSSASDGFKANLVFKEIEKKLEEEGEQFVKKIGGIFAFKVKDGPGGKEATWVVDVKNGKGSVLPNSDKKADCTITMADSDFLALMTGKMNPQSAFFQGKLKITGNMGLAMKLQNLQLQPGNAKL
Test: NBDS displacement assay
Type: binding
Conditions: displacement of SCP-2 (500 nM)-bound NBDS (500 nM), 24°C, 10 mM phosphate buffer pH 7.4, n=4
Would you mind telling me the reported Max % Displacement of each entry?
# number only, unit % dropped from output

[in] Given CCCCCCCC/C=C\CCCCCCCC(N)=O [Compound 12, Oleamide] , respond with its Max % Displacement.
[out] 68.3

[in] Given CCCCC/C=C\C/C=C\C/C=C\C/C=C\CCCC(=O)Nc1ccc(O)cc1 [Compound 10, N-arachidonoyl-p-aminophenol] , respond with its Max % Displacement.
[out] 89.2

[in] Given CCCCC/C=C\C/C=C\C/C=C\C/C=C\CCCC(=O)OCCN [Compound 6, O-arachidonoylethanolamine] , respond with its Max % Displacement.
[out] 94.7

[in] Given CCCCC/C=C\C/C=C\C/C=C\C/C=C\CCCC(N)=O [Compound 11, Arachidonoyl amide] , respond with its Max % Displacement.
[out] 71.1

[in] Given CCCCC/C=C\C/C=C\C/C=C\C/C=C\CCCC(=O)NC(CO)CO [Compound 4, N-arachidonoyl serinol] , respond with its Max % Displacement.
[out] 69.2

[in] Given CC/C=C\C/C=C\C/C=C\C/C=C\C/C=C\C/C=C\CCC(=O)NCCO [Compound 13, docosahexaenoyl ethanolamide] , respond with its Max % Displacement.
[out] 73.9

[in] Given CCCCC/C=C\C/C=C\C/C=C\C/C=C\CCCC(=O)NCCc1ccc(O)c(O)c1 [Compound 9, N-arachidonoyl dopamine] , respond with its Max % Displacement.
[out] 94.9

---

Target: Human recombinant SCP-2 (Homo sapiens)
Assay: NBDS displacement assay
Assay type: binding
Details: Ki = (Kd,NBDS × EC50)/[NBDS]total; NBDS 0.5 μM
Kindly apply the following: class 1 if Ki is less than 2000 nM, class 0 in every other case.

[in] Say whether its Ki is strictly beneath 2000 nM. Entry: CCCCC/C=C\C/C=C\C/C=C\C/C=C\CCCC(=O)NCCO [Compound 1, N-arachidonoylethanolamine]
[out] class 1

[in] Say whether its Ki is strictly beneath 2000 nM. Entry: CCCCC/C=C\C/C=C\C/C=C\C/C=C\CCCC(=O)NCC(=O)O [Compound 7, N-arachidonoyl glycine]
[out] class 1

[in] Say whether its Ki is strictly beneath 2000 nM. Entry: CCCCC/C=C\C/C=C\C/C=C\C/C=C\CCCC(=O)Nc1ccc(O)cc1 [Compound 10, N-arachidonoyl-p-aminophenol]
[out] class 1

[in] Say whether its Ki is strictly beneath 2000 nM. Entry: CCCCC/C=C\C/C=C\C/C=C\C/C=C\CCCC(=O)NC(CO)CO [Compound 4, N-arachidonoyl serinol]
[out] class 0

[in] Say whether its Ki is strictly beneath 2000 nM. Entry: CCCCC/C=C\C/C=C\C/C=C\C/C=C\CCCC(=O)NCCF [Compound 5, arachidonoyl-2’-fluoroethylamide]
[out] class 0

[in] Say whether its Ki is strictly beneath 2000 nM. Entry: CCCCC/C=C\C/C=C\C/C=C\C/C=C\CCCC(N)=O [Compound 11, Arachidonoyl amide]
[out] class 1

[in] Say whether its Ki is strictly beneath 2000 nM. Entry: CCCCC/C=C\C/C=C\C/C=C\C/C=C\CCCC(=O)NCCc1ccc(O)c(O)c1 [Compound 9, N-arachidonoyl dopamine]
[out] class 1

[in] Say whether its Ki is strictly beneath 2000 nM. Entry: CCCCC/C=C\C/C=C\C/C=C\C/C=C\CCCC(=O)OCCN [Compound 6, O-arachidonoylethanolamine]
[out] class 1

[in] Say whether its Ki is strictly beneath 2000 nM. Entry: CC(=O)Nc1ccc(Nc2nc(-c3ccc(Cl)c(Cl)c3)cs2)cc1 [Compound 14]
[out] class 1

[in] Say whether its Ki is strictly beneath 2000 nM. Entry: CCCCC/C=C\C/C=C\C/C=C\C/C=C\CCCC(=O)NCCc1c[nH]c2ccc(O)cc12 [Compound 8, N-arachidonoyl serotonin]
[out] class 1

[in] Say whether its Ki is strictly beneath 2000 nM. Entry: CC/C=C\C/C=C\C/C=C\C/C=C\C/C=C\C/C=C\CCC(=O)NCCO [Compound 13, docosahexaenoyl ethanolamide]
[out] class 1

// data source = paper PMC6904209
